# Measurement target: Full length WRN protein (aa 2-1432) (Homo sapiens (Human))
# Sequence (Q14191 2-1432): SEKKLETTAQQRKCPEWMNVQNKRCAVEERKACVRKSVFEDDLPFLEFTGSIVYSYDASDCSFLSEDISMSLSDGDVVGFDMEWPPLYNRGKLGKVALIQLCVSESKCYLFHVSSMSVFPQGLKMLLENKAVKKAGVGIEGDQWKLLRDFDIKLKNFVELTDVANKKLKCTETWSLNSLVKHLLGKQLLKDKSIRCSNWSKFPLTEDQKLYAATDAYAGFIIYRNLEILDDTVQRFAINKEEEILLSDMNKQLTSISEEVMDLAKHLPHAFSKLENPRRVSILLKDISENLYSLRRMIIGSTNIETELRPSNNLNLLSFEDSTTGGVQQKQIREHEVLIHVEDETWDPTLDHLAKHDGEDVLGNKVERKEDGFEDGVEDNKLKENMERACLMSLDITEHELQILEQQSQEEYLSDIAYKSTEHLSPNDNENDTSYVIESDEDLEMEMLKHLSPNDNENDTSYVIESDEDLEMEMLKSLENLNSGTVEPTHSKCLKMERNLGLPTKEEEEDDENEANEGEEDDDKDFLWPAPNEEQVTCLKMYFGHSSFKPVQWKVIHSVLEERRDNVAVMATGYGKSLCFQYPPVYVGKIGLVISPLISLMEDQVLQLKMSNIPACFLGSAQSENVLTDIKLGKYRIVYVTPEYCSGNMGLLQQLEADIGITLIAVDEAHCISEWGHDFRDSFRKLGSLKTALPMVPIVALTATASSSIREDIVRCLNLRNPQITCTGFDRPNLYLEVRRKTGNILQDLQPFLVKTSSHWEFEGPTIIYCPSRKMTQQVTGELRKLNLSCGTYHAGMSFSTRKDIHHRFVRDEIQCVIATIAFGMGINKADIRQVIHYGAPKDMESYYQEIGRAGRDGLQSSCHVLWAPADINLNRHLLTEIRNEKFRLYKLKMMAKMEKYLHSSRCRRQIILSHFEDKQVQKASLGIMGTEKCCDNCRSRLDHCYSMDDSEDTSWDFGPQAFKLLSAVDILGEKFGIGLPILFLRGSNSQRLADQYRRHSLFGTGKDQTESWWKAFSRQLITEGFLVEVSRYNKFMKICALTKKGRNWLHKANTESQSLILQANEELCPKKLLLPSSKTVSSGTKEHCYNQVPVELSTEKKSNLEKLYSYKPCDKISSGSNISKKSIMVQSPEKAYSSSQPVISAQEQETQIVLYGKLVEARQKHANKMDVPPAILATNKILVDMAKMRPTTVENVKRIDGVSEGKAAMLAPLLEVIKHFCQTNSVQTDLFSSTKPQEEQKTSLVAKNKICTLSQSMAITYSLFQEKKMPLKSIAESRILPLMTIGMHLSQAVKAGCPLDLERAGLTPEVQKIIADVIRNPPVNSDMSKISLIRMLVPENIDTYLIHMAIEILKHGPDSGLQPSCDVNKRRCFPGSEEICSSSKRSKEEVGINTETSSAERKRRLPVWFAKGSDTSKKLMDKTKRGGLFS
# Protocol notes: WRN ATPase ADP-Glo biochemical assay, Assay Format B (100 μM ATP)
# Condition set: 0.25 nM WRN, 100 nM C6.18 ssDNA, 60 min preincubation, read-out: ATPase ADPGlo AC50 (uM)- Assay Format B
Measured parameter: AC50

Examples with answers:
C=CC(=O)N1CC(OC2CC2)c2nn(-c3ccc(C4CC4)cc3O)c3c2C(C1)N(C(=O)c1cnc(C(F)(F)F)cc1N)CC3 (stereo not drawn)    0.005 to 0.015 µM
C=CC(=O)N1CCc2nn(-c3ccc(C4CCC4)c(F)c3O)c3c2C(C1)N(C(=O)c1cnc(C(F)(F)F)c(O)c1)CC3 (stereo not drawn)    0.005 to 0.015 µM
C=CC(=O)N1CCc2nn(-c3ccc(C4CC4)cc3O)c3c2C(C1)N(C(=O)c1cnc(Cl)c(F)c1N)CC3 (stereo not drawn)    0.0015 to 0.005 µM
C=CC(=O)N1CCc2nn(-c3ccc(C(C)C)cc3)c3c2C(C1)N(C(=O)c1ccc(C(F)(F)F)c(=O)[nH]1)CC3 (stereo not drawn)    0.015 to 0.055 µM
C=CC(=O)N1CCc2nn(-c3ccc(C4CC4)cc3O)c3c2C(C1)N(C(=O)c1cnc(C(C)(F)F)c(F)c1N)CC3 (stereo not drawn)    0.0015 to 0.005 µM
C=CC(=O)N1CCc2nn(-c3ccc(C45CC(C4)C5)c(F)c3)c3c2C(C1)N(C(=O)c1ccc(Br)c2[nH]cnc12)CC3 (stereo not drawn)    0.015 to 0.055 µM
C=CC(=O)N1CCc2nn(-c3ccc(C(C)C)cc3O)c3c2C(C1)N(C(=O)c1cnc(C(F)(F)F)c(O)c1)CC3 (stereo not drawn)    0.005 to 0.015 µM
C=CC(=O)N1CCc2nn(-c3ccc(C4CCC4)cc3O)c3c2C(C1)N(C(=O)c1cnc(Cl)c(O)c1)CC3 (stereo not drawn)    0.005 to 0.015 µM

Enquiry: Sample C=CC(=O)N1CCc2nn(-c3ccc(C(C)C)cc3)c3c2C(C1)N(C(=O)c1ccc(Br)c2ncn(CC4CCO4)c12)CC3 (stereo not drawn) [Compound 82] — what was its AC50?
Return: > 0.055 µM

Enquiry: Thanks! And C=CC(=O)N1CC(OC2CC(C#N)C2)c2nn(-c3ccc(C4CCC4)cc3)c3c2C(C1)N(C(=O)c1cnc(C(F)(F)F)cc1N)CC3 (stereo not drawn) ?
Return: 0.005 to 0.015 µM

Enquiry: Similarly, C=CC(=O)N1CCc2nn(-c3ccc(C4CC4)cc3O)c3c2C(C1)N(C(=O)c1cnc(C(F)(F)F)c(C)c1N)CC3 (stereo not drawn) ?
Return: 0.0015 to 0.005 µM

Enquiry: Please give the result for C=CC(=O)N1CC(C)c2nn(-c3ccc(C4CCC4)cc3O)c3c2C(C1)N(C(=O)c1cnc(C(F)(F)F)cc1N)CC3 (stereo not drawn) [Compound 135] too.
Return: 0.005 to 0.015 µM

* * *

# Measurement target: Full length WRN protein (aa 2-1432) (Homo sapiens (Human))
# Protocol notes: WRN ATPase ADP-Glo biochemical assay, Assay Format B (100 μM ATP)
# Condition set: 0.25 nM WRN, 100 nM C6.18 ssDNA, 60 min preincubation, read-out: ATPase ADPGlo AC50 (uM)- Assay Format B
Property: AC50; scope: individual compounds

Consider the reported AC50 for these compounds:
C=CC(=O)N1CCc2nc(-c3ccc(C4CCC4)cc3)n3c2C(C1)N(C(=O)c1ccc(Br)c2[nH]c(C(F)F)nc12)CC3 (stereo not shown)    0.0015 to 0.005 µM
C=CC(=O)N1CCc2nn(-c3ccc(C(C)C)cc3)c3c2C(C1)N(C(=O)c1ccc(Br)c2ncn(CC4CCO4)c12)CC3 (stereo not shown) [Compound 83]    > 0.055 µM
C=CC(=O)N1CCc2nn(-c3ccc(C(C)C)cc3O)c3c2C(C1)N(C(=O)c1ccc(Br)c2[nH]cnc12)CC3 (stereo not shown)    0.005 to 0.015 µM
CC(C)c1ccc(-n2nc3c4c2CCN(C(=O)c2ccc(Br)c5[nH]cnc25)C4CN(C(=O)/C=C/CN(C)C)CC3)cc1 (stereo not shown)    > 0.055 µM
C=CC(=O)N1CCc2nn(-c3ccc(C(C)C)cc3)c3c2C(C1)N(C(=O)c1ccc(Br)c(C(C)(C)O)c1)CC3 (stereo not shown)    > 0.055 µM

Enquiry: Can you look up the measured AC50 of C=CC(=O)N1CCc2nn(-c3ccc(C4CC4)cc3O)c3c2C(C1)N(C(=O)c1ccc(C(F)(F)F)nc1)CC3 (stereo not shown) for me?
Return: 0.005 to 0.015 µM

Enquiry: Input C=CC(=O)N1CCc2nn(-c3ccc(C4CCC4)cc3O)c3c2C(C1)N(C(=O)c1ccc(C(F)(F)F)nc1N)CC3 (stereo not shown)
Return: 0.005 to 0.015 µM
